target: UniProt:P10980; test: Binding affinity to the rat cardiac muscarinic acetylcholine receptor M2 using 0.3 nM [3H]N-methylscopolamine as radioligand
Sequence (P10980 whole entry): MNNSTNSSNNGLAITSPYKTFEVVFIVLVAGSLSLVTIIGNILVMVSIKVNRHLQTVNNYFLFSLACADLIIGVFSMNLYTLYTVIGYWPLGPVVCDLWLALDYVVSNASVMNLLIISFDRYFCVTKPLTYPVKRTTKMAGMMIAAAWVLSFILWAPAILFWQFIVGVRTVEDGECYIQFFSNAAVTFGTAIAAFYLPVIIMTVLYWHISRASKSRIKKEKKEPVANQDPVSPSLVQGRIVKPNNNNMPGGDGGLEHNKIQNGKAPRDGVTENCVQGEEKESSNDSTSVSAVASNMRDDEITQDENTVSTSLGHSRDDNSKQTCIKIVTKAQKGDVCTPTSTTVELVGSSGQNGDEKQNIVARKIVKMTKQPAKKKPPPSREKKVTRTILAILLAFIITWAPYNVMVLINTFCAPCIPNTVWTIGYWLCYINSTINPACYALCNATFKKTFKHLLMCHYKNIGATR
experimental readout: IC50 (nM)

Here's what some known entries look like.
O=C1Nc2cccnc2N(C(=O)CN2CCCCC2CN2CCCC2)c2ccccc21 (stereo not given) | 560
CN(CC1CCCCN1CC(=O)N1c2ccccc2C(=O)Nc2cccnc21)C1CCCCCC1 (stereo not given) | 30
CCc1ccc2c(c1)C(=O)Nc1cccnc1N2C(=O)CN1CCCCC1CN(CC)CC (stereo not given) | 200
CCN(C)CC1CCCCN1CC(=O)N1c2ccccc2C(=O)Nc2cccnc21 (stereo not given) | 120
CCN(CC)CC1CCCCN1CC(=O)N1c2cc(C)ccc2C(=O)Nc2cccnc21 (stereo not given) | 70

I. CCCCN(C)CC1CCCCN1CC(=O)N1c2ccccc2C(=O)Nc2cccnc21 (stereo not given)
II. CCN(CC)CC1CCCCCN1CC(=O)N1c2ccccc2C(=O)Nc2cccnc21 (stereo not given)
Query: // returns I or II , whichever has the lower IC50 Identify your pick by its label.
Result: I

P. CN(CC1CCCCN1CC(=O)N1c2ccccc2C(=O)Nc2cccnc21)C1CCCCC1 (stereo not given)
Q. CCCN(CCC)CC1CCCCN1CC(=O)N1c2ccccc2C(=O)Nc2cccnc21 (stereo not given)
Query: Given the two records P and Q , choose the one whose IC50 value is lower. Let me know the label of the one you choose.
Result: P
